- testSummary: mouse blood concentration transition, single oral administration
- Type: in vivo
- runConditions: mouse; 5 mg/kg single oral, fasted female C57BL/6N mice, plasma
quantityName: AUC(0-inf) (ng·h/mL)
Numbers only, in ng·h/mL.

Lookup result for CC(C)C[C@H](NC(=O)[C@@H](O)[C@H](N)Cc1ccccc1)C(=O)O ; measured AUC(0-inf): 3240

====

- testSummary: mouse blood concentration transition, single oral administration
- Type: in vivo
- runConditions: mouse; 5 mg/kg single oral, fasted female C57BL/6N mice, plasma
quantityName: MRT inf (min)
Answers are plain numbers, in min.

Per the record, CC(C)C[C@H](NC(=O)[C@@H](O)[C@H](N)Cc1ccccc1)C(=O)O [ubenimex] has MRT inf of 52.3

====

- testSummary: mouse blood concentration transition, single oral administration
- Format: in vivo
- runConditions: mouse; 50 mg/kg single oral, fasted female C57BL/6N mice, plasma
quantityName: AUC(0-inf) (ng·h/mL)
Answers are plain numbers, in ng·h/mL.

Per the record, CC(C)C[C@H](NC(=O)[C@@H](O)[C@H](N)Cc1ccccc1)C(=O)O [ubenimex] has AUC(0-inf) of 47700

====

- testSummary: mouse blood concentration transition, single oral administration
- Format: in vivo
- runConditions: mouse; 50 mg/kg single oral, fasted female C57BL/6N mice, plasma
- Procedure: First, 9 nine-week-old fasted female C57BL/6N mice (Charles River Laboratories Japan, Inc.) in each group were subjected to the single oral administration of 5 mg/kg or 50 mg/kg of ubenimex. Blood collecting time points were 9 time points that were time points 5, 10, and 30 minutes, 1, 3, 6, 8, 12, and 24 hours after the administration. […] Plasma was prepared from the obtained blood, and the plasma ubenimex concentration was measured with a liquid chromatography mass spectrometer (LC/MS/MS).
quantityName: Tmax (min)
Give bare numbers, in min.

# Tmax (compound: CC(C)C[C@H](NC(=O)[C@@H](O)[C@H](N)Cc1ccccc1)C(=O)O [ubenimex] ) is 10.2

====

- testSummary: mouse blood concentration transition, single oral administration
- Assay type: in vivo
- runConditions: mouse; 50 mg/kg single oral, fasted female C57BL/6N mice, plasma
quantityName: MRT inf (min)
Give bare numbers, in min.

// field: MRT inf; key: CC(C)C[C@H](NC(=O)[C@@H](O)[C@H](N)Cc1ccccc1)C(=O)O ; value = 55.1
